target: Human recombinant LOXL2 (Homo sapiens); assay: LOXL2 inhibition, Amplex Red oxidation assay; assay type: biochemical; settings: incubation with enzyme 30 min at 37° C; read-out: Human recombinant LOXL2 Activity IC50
Sequence (Q9Y4K0 26-774): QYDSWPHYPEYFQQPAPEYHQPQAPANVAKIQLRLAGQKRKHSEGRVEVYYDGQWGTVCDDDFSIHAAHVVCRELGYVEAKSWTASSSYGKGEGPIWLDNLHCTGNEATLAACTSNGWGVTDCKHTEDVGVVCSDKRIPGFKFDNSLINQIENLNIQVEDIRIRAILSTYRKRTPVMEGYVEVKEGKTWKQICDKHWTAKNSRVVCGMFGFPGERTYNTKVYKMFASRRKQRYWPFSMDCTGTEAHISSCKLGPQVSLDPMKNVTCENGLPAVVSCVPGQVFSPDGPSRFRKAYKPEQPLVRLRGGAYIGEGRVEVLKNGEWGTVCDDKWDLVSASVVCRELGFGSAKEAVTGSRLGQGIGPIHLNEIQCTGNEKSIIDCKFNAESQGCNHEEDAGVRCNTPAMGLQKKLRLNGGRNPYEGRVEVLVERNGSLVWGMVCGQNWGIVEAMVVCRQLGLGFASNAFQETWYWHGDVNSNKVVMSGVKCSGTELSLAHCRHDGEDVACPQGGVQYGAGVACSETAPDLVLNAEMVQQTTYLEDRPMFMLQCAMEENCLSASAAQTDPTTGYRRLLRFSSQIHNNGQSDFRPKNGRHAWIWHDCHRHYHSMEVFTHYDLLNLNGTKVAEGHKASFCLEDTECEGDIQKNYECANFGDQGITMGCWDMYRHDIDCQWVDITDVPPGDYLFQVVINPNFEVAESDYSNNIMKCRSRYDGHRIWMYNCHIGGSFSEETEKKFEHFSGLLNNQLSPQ
Counter-ions that a name gives are not always drawn.
readout kind: IC50 (nM)
One number for each entry, in nM.

Cc1cccc(S(=O)(=O)C(F)(F)/C(F)=C/CN)c1 [Compound 13] ... 500
Cc1ccc(S(=O)(=O)C(F)(F)/C(F)=C/CN)cc1 [Compound 6] ... 500
NC/C=C(\F)C(F)(F)S(=O)(=O)c1ccccc1O [Compound 11] ... 1700
NC/C=C(\F)C(F)(F)S(=O)(=O)c1ccccc1N1CCS(=O)(=O)CC1 [Compound 7, hydrochloride] ... 2000
N#CCCN [BAPN, β-aminopropionitrile, reference compound] ... 400

For every record below, what is its IC50?
1. CS(=O)(=O)c1cccc(S(=O)(=O)C(F)(F)/C(F)=C/CN)c1 [Compound 3]
2. NC/C=C(\F)C(F)(F)[S+]([O-])c1ccccc1 (stereo not shown) [Compound 9]
3. COc1cccc(S(=O)(=O)C(F)(F)/C(F)=C/CN)c1 [Compound 12]
4. Cc1occc1S(=O)(=O)C(F)(F)/C(F)=C/CN [Compound 15]
5. CS(=O)(=O)c1ccc(COc2ccccc2S(=O)(=O)C(F)(F)/C(F)=C/CN)cc1 [Compound 10]
6. Cc1ccccc1S(=O)(=O)C(F)(F)/C(F)=C/CN [Compound 5]

### Response
700
1400
600
700
100
500
